- Tested on: P388 leukemia ip, CD2F1 mice, survival T/C
- ASSAY PROCEDURE: NCI In Vivo Anticancer Drug Screen. Data for tumor model P388 Leukemia (intraperitoneal) in CD2F1 (CDF1) mice
- TEST SETTINGS: endpoint: median survival time; dose: 200.0 mg/kg/injection; schedule: Q01DX005 (ip); vehicle: Klucel (hydroxypropylcellulose) (HPC); higher = longer survival
- Method: The antitumor activity of compounds was measured in mice bearing transplantable tumors. Survival or tumor size were measured and the results are expressed as the measurement made in the treated group (T) divided by the measurement made in the vehicle treated control group (C). The tumor model used in this assay is P388 Leukemia (intraperitoneal) in CD2F1 (CDF1) mice
Inconclusive results and toxic doses are left out.
Reported T/C values for the following molecules.

Clc1ccc2c(c1)nc(-c1ccccn1)n2CCc1ccccn1
93 % of control
COc1cc2ccc1NC(=O)N1CCN(CC1)C(=O)Nc1ccc(cc1OC)-c1ccc(c(OC)c1)NC(=O)N1CCN(CC1)C(=O)Nc1ccc-2cc1OC
102 % of control
Cn1c(=O)c2c(ncn2Cc2ccc(O)c([N+](=O)[O-])c2)n(C)c1=O
92 % of control
CCOCC[Si]12OCCN(CCO1)CCO2
90 % of control
CC(=O)Oc1nnc(OC(C)=O)n1-c1ccccc1
115 % of control
COc1c(NC=O)c2c(c([N+](=O)[O-])c1OC)C(=O)OC2
98 % of control
CCOC(=O)C(CCC[n+]1ccc2ccccc2c1)C(=O)OCC
98 % of control
O=C(O)c1[nH]c(=O)[nH]c(=O)c1[N+](=O)[O-]
98 % of control

Any idea what its T/C is? The molecule is O=C(CN1CCOCC1)c1cc2c(c3ccccc13)CCCC2
96 % of control

Any idea what its T/C is? The molecule is CC1(C)CCCC2(C)C3=C(CCC12)C(=O)OC3 (stereo unspecified)
100 % of control

Any idea what its T/C is? The molecule is S=C(Nc1ccccc1)P(c1ccccc1)c1ccccc1.[Ir]
97 % of control

* * *

Reported T/C values for the following compounds.
- System: P388 leukemia ip, CD2F1 mice, survival T/C
- ASSAY PROCEDURE: NCI In Vivo Anticancer Drug Screen. Data for tumor model P388 Leukemia (intraperitoneal) in CD2F1 (CDF1) mice
- TEST SETTINGS: endpoint: median survival time; dose: 200.0 mg/kg/injection; schedule: Q01DX009 (ip); vehicle: saline with Tween-80; higher = longer survival
Inconclusive results and toxic doses are left out.

Study these solved cases before continuing.
CC(C)=NOc1ccccc1[N+](=O)[O-]
93 % of control
O=C(Nc1ccccc1)/C(N=Nc1cc(S(=O)(=O)O)ccc1Cl)=N/Nc1cc(S(=O)(=O)O)ccc1Cl
86 % of control
CCN(CC)CCNc1n[nH]c(=O)c2ccccc12
95 % of control
CCC(=O)Nc1ccc(Br)cc1
96 % of control
COc1cccc(CN2CC(C)N(N=Cc3c4c(O)c5c(O)c(C)c6c(c5c3O)C(=O)C(C)(O/C=C/C(OC)C(C)C(OC(C)=O)C(C)C(O)C(C)C(O)C(C)/C=C/C=C(\C)C(=O)N4)O6)C(C)C2)c1 (stereo not drawn)
99 % of control

Alright, here's another compound for you.
Any idea what its T/C is? The compound is O=C(CC(O)(C(F)(F)F)C(F)(F)F)c1cc(CC(=O)C(O)(C(F)(F)F)C(F)(F)F)cc(CC(=O)C(O)(C(F)(F)F)C(F)(F)F)c1
105 % of control

* * *

- Tested on: P388 leukemia ip, CD2F1 mice, survival T/C
- ASSAY PROCEDURE: NCI In Vivo Anticancer Drug Screen. Data for tumor model P388 Leukemia (intraperitoneal) in CD2F1 (CDF1) mice
- TEST SETTINGS: endpoint: median survival time; dose: 100.0 mg/kg/injection; schedule: Q01DX005 (ip); vehicle: saline with Tween-80; higher = longer survival
Toxic doses and inconclusive results are not listed.
Reported T/C values for the following molecules.

Any idea what its T/C is? The molecule is NC(=O)CCS(=O)(=O)Cc1ccccc1
95 % of control

Any idea what its T/C is? The molecule is N#Cc1c(NC(=O)C(Cl)(Cl)Cl)sc2c1CCCC2
110 % of control

* * *

- Tested on: P388 leukemia ip, CD2F1 mice, survival T/C
- ASSAY PROCEDURE: NCI In Vivo Anticancer Drug Screen. Data for tumor model P388 Leukemia (intraperitoneal) in CD2F1 (CDF1) mice
- TEST SETTINGS: endpoint: median survival time; dose: 50.0 mg/kg/injection; schedule: Q01DX009 (ip); vehicle: distilled water + Tween-80; higher = longer survival
Inconclusive results and toxic doses are left out.
Reported T/C values for the following compounds.

CCOC(=O)CCC(CC)NC(=O)c1ccc(N)cc1 (stereo not given)
98 % of control
Cc1c(C(=O)O)nc(C(Br)(Br)Br)[nH]c1=O
118 % of control
COc1ccc([N+](=O)[O-])c(/C=C/C(=O)c2ccccn2)c1
97 % of control

Recall the recorded T/C for COc1cc(CBr)ccc1OCc1ccccc1 with P388 leukemia ip, CD2F1 mice, survival T/C and state it.
108 % of control

Recall the recorded T/C for NC(=O)CCNC(=O)CCCNC(=O)CCNC(=O)OCc1ccccc1 with P388 leukemia ip, CD2F1 mice, survival T/C and state it.
97 % of control

* * *

Reported T/C values for the following compounds.
- Tested on: P388 leukemia ip, CD2F1 mice, survival T/C
- ASSAY PROCEDURE: NCI In Vivo Anticancer Drug Screen. Data for tumor model P388 Leukemia (intraperitoneal) in CD2F1 (CDF1) mice
- TEST SETTINGS: endpoint: median survival time; dose: 6.25 mg/kg/injection; schedule: Q01DX005 (ip); vehicle: saline with Tween-80; higher = longer survival
Toxic doses and inconclusive results are not listed.

Study these solved cases before continuing.
C[N+](C)=c1ccc2nc3c(ccc4ccccc43)oc-2c1
105 % of control
CCCCCCCCN(CCCCCCCC)C(=N)c1ccnc2ccccc12
101 % of control
Cc1cc(C(C#N)c2ccc(Cl)cc2)c(Cl)cc1NC(=O)c1cc(I)cc(I)c1O (configuration not stated)
102 % of control
O=c1ccc2cc3ccoc3c(OCCCCCCCCCCCCOc3c4occc4cc4ccc(=O)oc34)c2o1
100 % of control
c1ccc2c(c1)oc1cc3c(cc12)ncc1cccn13
97 % of control

Any idea what its T/C is? The compound is CCCCCCCC(=O)C1C(c2ccc(C(C)C)cc2)CC(=O)C(CCCCCC)C1c1ccc(C(C)C)cc1 (configuration not stated)
91 % of control

Any idea what its T/C is? The compound is O=C(NN1C(=O)CS(=O)(=O)C1c1ccccc1F)c1ccncc1 (configuration not stated)
102 % of control

* * *

Reported T/C values for the following molecules.
- Tested on: P388 leukemia ip, CD2F1 mice, survival T/C
- ASSAY PROCEDURE: NCI In Vivo Anticancer Drug Screen. Data for tumor model P388 Leukemia (intraperitoneal) in CD2F1 (CDF1) mice
- TEST SETTINGS: endpoint: median survival time; dose: 100.0 mg/kg/injection; schedule: Q01DX009 (ip); vehicle: suspension in saline; higher = longer survival
Toxic doses and inconclusive results are not listed.

COC1NC(=S)N(Cc2ccccc2)C1(C)C (stereo not drawn)
97 % of control
O=[N+]([O-])c1ccc(/C=C/Sc2ccccc2)o1
98 % of control
CN(C)c1ccc(C2NC(C(=O)O)CS2)cc1 (stereo not drawn)
100 % of control
Fc1ccc(CSC(=S)Nc2ccc(I)cc2)cc1
93 % of control
Cc1ccc(NC(=S)SCc2ccc3c(c2)OCO3)cc1Cl
94 % of control

Any idea what its T/C is? The molecule is Cc1ccc(NC(=S)SCc2ccc(Cl)cc2)cc1Br
104 % of control

Any idea what its T/C is? The molecule is c1ccc2[nH]cnc2c1
90 % of control

Any idea what its T/C is? The molecule is c1ccc2c[s+]ccc2c1
97 % of control

* * *

- Test system: P388 leukemia ip, CD2F1 mice, survival T/C
- ASSAY PROCEDURE: NCI In Vivo Anticancer Drug Screen. Data for tumor model P388 Leukemia (intraperitoneal) in CD2F1 (CDF1) mice
- TEST SETTINGS: endpoint: median survival time; dose: 400.0 mg/kg/injection; schedule: Q01DX009 (ip); vehicle: saline with Tween-80; higher = longer survival
Toxic doses and inconclusive results are not listed.
Reported T/C values for the following compounds.

Study these solved cases before continuing.
C(=N\n1cnnc1)/c1ccccc1/C=N/n1cnnc1
100 % of control
N=Cc1c(O)n(C2CCCCC2)c(=O)n(C2CCCCC2)c1=O
100 % of control
Cc1nc2c(c(-c3ccccc3)n1)Cc1c(ccc3ccccc13)O2
92 % of control
CN(C)c1ccc(Sc2ccc3nc(N)nc(N)c3c2)cc1
117 % of control

Any idea what its T/C is? The compound is Nc1nc(SC2CCCCC2)c2[nH]cnc2n1
90 % of control

Any idea what its T/C is? The compound is CC(C)(Cl)C1OC(C(C)(C)Cl)OC(C(C)(C)Cl)O1 (stereo unspecified)
103 % of control

Any idea what its T/C is? The compound is CCCC1OCC(CC)C(CCC)O1 (stereo unspecified)
91 % of control

Any idea what its T/C is? The compound is CCCCOC(=S)Nc1ccccc1
110 % of control

Any idea what its T/C is? The compound is COC1OC2COC(c3ccccc3)OC2C(O)C1O (stereo unspecified)
107 % of control

Any idea what its T/C is? The compound is O=C(c1ccccc1)c1cc([N+](=O)[O-])cc([N+](=O)[O-])c1
97 % of control

Any idea what its T/C is? The compound is C[C@]12CCC(=O)C=C1CC[C@@H]1[C@@H]2[C@@H](O)C[C@@]2(C)[C@H]1CC[C@]2(O)C(=O)COC(=O)c1ccc([N+](=O)[O-])cc1Cl
86 % of control

The reported measurements were obtained from PubChem BioAssay AID330.
